System: A-375
assayText: Antimitotic activity against human A375 cells by [3H]thymidine incorporation assay
Assay type: functional
conditionSet: A-375, 24 h, read-out: ID50 (the source's name)
observable: log10 of IC50 (log10 of the value in µM)
Annotation: log10 of IC50, µM basis.

compound	log10 of IC50
CCCCCCCC/C=C\CCCCCCCC(=O)N[C@H]1[C@@H](OCCCCCCCC)O[C@H](CO)[C@@H](O)[C@@H]1O	0.78
CCCCCCCCCCCCCCCCO[C@H]1O[C@H](CO)[C@@H](O)[C@H](O)[C@H]1NC(C)=O	1.47
CCCCCCCC/C=C\CCCCCCCC(=O)N[C@H]1[C@@H](OCCCCCCCC)O[C@H](CO)[C@@H](O)[C@@H]1OS(=O)(=O)O	1.20
CCCCCCCC/C=C\CCCCCCCCO[C@H]1O[C@H](COS(=O)(=O)O)[C@@H](O)[C@H](O)[C@H]1NC(C)=O	-0.22
CCCCCCCCCCCCCCCCO[C@H]1O[C@H](COC[C@H](O)CO)[C@@H](O)[C@H](O)[C@H]1NC(=O)CCCC	0.34

So what's the measured log10 of IC50 for this one? CCCCCCCCCCCCCCCCO[C@H]1O[C@H](COCC(O)CO)[C@@H](O)[C@H](O)[C@H]1NC(=O)CCCC (stereo partly specified)
0.48

Values compiled from ChEMBL document CHEMBL1139840.
